System: TK-10 renal
Test: NCI tumour cell line growth inhibition, 48 h
Listed here are compounds together with their documented TGI.

COc1ccc(C23OCC(Cc4cc(OC)c(OC)cc42)C3COC(C)=O)cc1OC (configuration not stated) ... > 100 µM
CCN1C(=O)N(C)C(O)c2c1nc1ccccn1c2=O (configuration not stated) ... 60.4 µM

The reported TGI of the compound CC(=O)[CH-]C(=O)c1ccccc1.CC(=O)[CH-]C(=O)c1ccccc1.CCN(CC)CC[O-].CCN(CC)CC[O-].Cl.[Hf+4] was > 100 µM

The reported TGI of the compound COc1nc(NC2OC(COC(C)=O)C(OC(C)=O)C(OC(C)=O)C2OC(C)=O)c2c(OC(C)=O)c(C)c(=O)oc2n1 (configuration not stated) was > 100 µM

---

Listed here are molecules together with their documented TGI.
Test system: HT29 colon
Experiment: NCI tumour cell line growth inhibition, 48 h

The reported TGI of the molecule COC1CCN(N(C)C)O1 (stereo unspecified) was > 100 µM

---

Test system: DMS 114 small cell lung
Assay: NCI tumour cell line growth inhibition, 48 h
*1 amine or outer side, *2 acyl side, *3 side chain or, on linkers, in order; H or OH if unused. Where a SMILES comes first, the peptide text is derived from it. [ ]: non-standard residue; d: D form. ξ: configuration not given here. Ile(3ξ) = CCC(C)[C@H](N)C(=O)O; X33 = C=CCC(O[*:1])C(=O)[*:2]; NMeV = CN[C@H](C(=O)O)C(C)C; NMeA = CN[C@@H](C)C(=O)O; βAla = NCCC(=O)O
measured.endpoint: TGI

Consider the worked cases shown below.
CN(C)c1nc(=Nc2ccc3c(c2)OCO3)ss1 ... > 100 µM
COc1cc(/C=C/C(=O)Oc2ccc(NC(C)=O)cc2)ccc1C(=O)OCc1ccccc1 ... > 100 µM
C=CCC1OC(=O)CCNC(=O)[C@H](C)N(C)C(=O)[C@H](C(C)C)N(C)C(=O)[C@H](C(C)CC)NC(=O)[C@@H]2CCCN2C1=O (some centres undefined) (cyclo([Ile(3ξ)][NMeV][NMeA][βAla][X33]P)) ... > 100 µM
c1ccc2c(c1)c1ccccc1c1n[se]nc21 ... > 100 µM
CCOP(=S)(OCC)Oc1ccc2c(c1)OC(=O)C1(Cl)C2(C)C2(Cl)C(=O)Oc3cc(OP(=S)(OCC)OCC)ccc3C12C (centres undefined) ... 30 µM
CC1=C(C(=O)Nc2ccc([N+](=O)[O-])cc2)C(c2cccc([N+](=O)[O-])c2)C(C(=O)Nc2ccc([N+](=O)[O-])cc2)=C(C)N1 ... > 100 µM

The reported TGI of the compound O=C1O[C@@H](c2ccccc2)C[C@H]1CN1CCOCC1 was > 100 µM

The reported TGI of the compound Nc1n[n+](=O)c2ccccc2n1O was > 100 µM

The reported TGI of the compound O=C1c2ccccc2-c2ccccc2C(=O)C1(Br)Br was 28.5 µM

---

Listed here are compounds together with their documented TGI.
Tested on: SK-MEL-5 melanoma
Experiment: NCI tumour cell line growth inhibition, 48 h
Unit µM implied. Number only.

Consider the worked cases shown below.
CC(=O)Oc1ccc2[nH]c3c(C)c4cccc-4ccc3c2c1 ... 3.95
CNc1ccc(/C=C2\C=Cc3ccccc32)cc1 ... 54.3
Cc1c(S(=O)(=O)/N=C(\NN)Nc2ccc(Cl)cc2)sc2ccc(Cl)cc12 ... 33.4
O=C1C(Cl)=C(Nc2cccc(O)c2)C(=O)N1CCc1ccccc1 ... 38
CC1(C)CCC2(CC1)N[C@@H](C(=O)N[C@@H]1CC[C@@H](C(N)=O)OC1)[C@H](c1ccnc(Cl)c1F)[C@]21C(=O)Nc2cc(Cl)ccc21 ... 2.17

Let's switch to this compound now.
The reported TGI of the compound COc1cc(C2NCCC(c3ccccc3)(c3ccccc3)N2)cc(OC)c1OC (stereo not given) was 32.1
